Reference source for all entries: ChEMBL document CHEMBL1287775

system: Bacillus subtilis; test: Antimicrobial activity against Bacillus subtilis by well diffusion method; type: functional
MIC values for the compounds below.
measureName: MIC (µg/mL)

• O=C(c1ccc(Cl)cc1)[C@@H]1[C@H]2c3ccccc3OC[C@H]2N2Cc3ccccc3C[C@H]12 = 5
• O=C1c2ccccc2CC[C@]12[C@H]1c3ccccc3OC[C@H]1N1CSC[C@@H]12 = 55
• CN1C[C@H](C(=O)c2ccc(Cl)cc2)[C@H]2c3ccccc3OC[C@H]21 = 15
• O=C1c2ccccc2CC[C@]12[C@H]1c3ccccc3OC[C@H]1N1Cc3ccccc3C[C@@H]12 = 5
• CN1C[C@@]2(CCc3ccccc3C2=O)[C@H]2c3ccccc3OC[C@H]21 = 35
• CN(C)[C@@H]1C(O)=C(C(N)=O)C(=O)[C@@]2(O)C(O)=C3C(=O)c4c(O)cccc4[C@@](C)(O)[C@H]3C[C@@H]12 = 10
• O=C(c1ccc(Cl)cc1)[C@@H]1[C@H]2c3ccccc3OC[C@H]2N2CSC[C@H]12 = 20
• O=C(c1ccc(Cl)cc1)[C@@H]1[C@H]2c3ccccc3OC[C@H]2N2CCC[C@H]12 = 5
• O=C1c2ccccc2CC[C@]12[C@H]1c3ccccc3OC[C@H]1N1CCC[C@@H]12 = 70
